Hey, just so you know, these numbers are from PubChem BioAssay AID1159580.

Examples of compounds with documented normalized growth follow.
test: chemical genetic growth profiling, strain panel (AID 1159580);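 also: tested at 20 µM; growth read once vehicle control cultures reached saturation at 30 °C; 1 = growth at the plate median or of vehicle wells; lower values mean less growth of the strain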; conditions: S. cerevisiae deletion strains, growth OD, locus YOR001W, strain rrp6, stronger effect = lower value
Among all 5,500 compounds or so, about 2,000 (36%) were called active. Roughly 18% stayed inconclusive and do not appear here. The list shows a part of the results. Where a SMILES comes first, the peptide text is derived from it.

Challenge: Look up normalized growth: CC1O[C@@H](Oc2c(-c3ccc(O)c(O)c3)oc3cc(O)cc(O)c3c2=O)[C@H](O)[C@H](O)[C@H]1O (stereo partly specified)
Response given: 0.992 (inactive)

Challenge: Param item: O=c1c(O)c(-c2ccc(O)c(O)c2)oc2c(O[C@@H]3O[C@H](CO)[C@H](O)[C@@H](O)[C@H]3O)c(O)cc(O)c12
Response given: 1.01 (inactive)

Challenge: Similarly, COC(=O)[C@H](Cc1ccccc1)NC(=O)[C@@H](N)CC(=O)O (H-Asp-Phe-OMe) ?
Response given: 1.01 (inactive)

Challenge: Then CC1(C)C2CC(=O)[C@]3(C)C(CC[C@@]4(C)[C@H](c5ccoc5)OC(=O)C5OC543)[C@@]2(C)[C@@H](O)C[C@H]1O (stereo partly specified) ?
Response given: 1.01 (inactive)

Challenge: Next up: CC1(C)C(=O)C=C[C@@]2(C)C1C[C@@H](O)[C@]1(C)C2CC[C@@]2(C)[C@H](c3ccoc3)OC(=O)[C@H]3O[C@]321 (stereo partly specified)
Response given: 0.986 (inactive)

Challenge: Now the compound O=C1[O][Bi][O]c2ccccc21
Response given: 1.06 (inactive)

Challenge: Again, but for CC(=O)OCC1=C(C(=O)O)N2C(=O)[C@@H](NC(=O)Cc3cccs3)[C@H]2SC1
Response given: 1.02 (inactive)

Challenge: Item: COc1ccc(-c2cc(=O)c3c(O)cc(O[C@@H]4O[C@H](CO[C@H]5O[C@H](C)[C@@H](O)[C@H](O)[C@@H]5O)[C@@H](O)[C@H](O)[C@H]4O)cc3o2)cc1O
Response given: 1.03 (inactive)

New cases:
Challenge: Which normalized growth value belongs to NC(=O)CN1CCCC1=O ?
Response given: 1.01 (inactive)

Challenge: Next record, please: CC1(C)C=CC(=O)[C@@]2(C)C1CC(=O)[C@]1(C)C2CC[C@@]2(C)[C@H](c3ccoc3)OC(=O)C3OC321 (stereo partly specified)
Response given: 1 (inactive)

Challenge: Again, but for CC1(C)O[C@H]2CC(=O)OC[C@]23[C@H]2CC[C@@]4(C)[C@H](c5ccoc5)OC(=O)[C@H]5O[C@]54[C@]2(C)C(=O)C[C@@H]13
Response given: 0.995 (inactive)

Challenge: And what about the compound COc1ccc(-c2oc3cc(O[C@H]4O[C@H](CO)[C@@H](O)[C@H](O)[C@H]4O)c(OC)c(O)c3c(=O)c2OC)cc1O ?
Response given: 1.02 (inactive)

Challenge: How about this compound: C=C(C)[C@H]1COc2cc3oc(=O)ccc3cc2O1
Response given: 0.956 (inactive)

Challenge: Also check C=C[C@H]1CN2CC[C@H]1C[C@@H]2[C@@H](OC(=O)OCC)c1ccnc2ccc(OC)cc12
Response given: 1.01 (inactive)

Challenge: And O=C(O[C@@H]1Cc2c(O)cc(O)cc2O[C@@H]1c1cc(O)c(=O)c2c(O)c(O)cc([C@H]3Oc4cc(O)cc(O)c4C[C@H]3O)c2c1)c1cc(O)c(O)c(O)c1 ?
Response given: 0.736 (active)

Challenge: Also O=c1c(O)c(-c2ccc(O)c(O)c2)oc2cc(O)cc(O)c12 ?
Response given: 0.925 (inactive)
